Measurement Target: UniProtKB P35968
Method Summary: Inhibition of VEGFR-2 (unknown origin) kinase activity using poly(Glu-Tyr) at 4:1 ratio as substrate in presence of ATP incubated for 1 hr by ELISA
Property Name: pIC50
Just the number, please; pIC50 means minus log10 of the concentration in mol/L.

Recorded pIC50 for `COc1cc(-c2cc(-c3ccc4ccccc4c3)nc(NN)c2C#N)ccc1O` , please?
9.72

Would you kindly repeat that for `N#Cc1c(-c2ccc([N+](=O)[O-])cc2)cc(-c2ccc3ccccc3c2)nc1NN` ?
9.47

Similarly, `N#Cc1c(-c2ccc(Cl)cc2)cc(-c2ccc3ccccc3c2)nc1NN` ?
9.60

###

Measurement Target: Vascular endothelial growth factor receptor 2 (Homo sapiens, UniProt P35968)
Sequence (P35968 whole entry): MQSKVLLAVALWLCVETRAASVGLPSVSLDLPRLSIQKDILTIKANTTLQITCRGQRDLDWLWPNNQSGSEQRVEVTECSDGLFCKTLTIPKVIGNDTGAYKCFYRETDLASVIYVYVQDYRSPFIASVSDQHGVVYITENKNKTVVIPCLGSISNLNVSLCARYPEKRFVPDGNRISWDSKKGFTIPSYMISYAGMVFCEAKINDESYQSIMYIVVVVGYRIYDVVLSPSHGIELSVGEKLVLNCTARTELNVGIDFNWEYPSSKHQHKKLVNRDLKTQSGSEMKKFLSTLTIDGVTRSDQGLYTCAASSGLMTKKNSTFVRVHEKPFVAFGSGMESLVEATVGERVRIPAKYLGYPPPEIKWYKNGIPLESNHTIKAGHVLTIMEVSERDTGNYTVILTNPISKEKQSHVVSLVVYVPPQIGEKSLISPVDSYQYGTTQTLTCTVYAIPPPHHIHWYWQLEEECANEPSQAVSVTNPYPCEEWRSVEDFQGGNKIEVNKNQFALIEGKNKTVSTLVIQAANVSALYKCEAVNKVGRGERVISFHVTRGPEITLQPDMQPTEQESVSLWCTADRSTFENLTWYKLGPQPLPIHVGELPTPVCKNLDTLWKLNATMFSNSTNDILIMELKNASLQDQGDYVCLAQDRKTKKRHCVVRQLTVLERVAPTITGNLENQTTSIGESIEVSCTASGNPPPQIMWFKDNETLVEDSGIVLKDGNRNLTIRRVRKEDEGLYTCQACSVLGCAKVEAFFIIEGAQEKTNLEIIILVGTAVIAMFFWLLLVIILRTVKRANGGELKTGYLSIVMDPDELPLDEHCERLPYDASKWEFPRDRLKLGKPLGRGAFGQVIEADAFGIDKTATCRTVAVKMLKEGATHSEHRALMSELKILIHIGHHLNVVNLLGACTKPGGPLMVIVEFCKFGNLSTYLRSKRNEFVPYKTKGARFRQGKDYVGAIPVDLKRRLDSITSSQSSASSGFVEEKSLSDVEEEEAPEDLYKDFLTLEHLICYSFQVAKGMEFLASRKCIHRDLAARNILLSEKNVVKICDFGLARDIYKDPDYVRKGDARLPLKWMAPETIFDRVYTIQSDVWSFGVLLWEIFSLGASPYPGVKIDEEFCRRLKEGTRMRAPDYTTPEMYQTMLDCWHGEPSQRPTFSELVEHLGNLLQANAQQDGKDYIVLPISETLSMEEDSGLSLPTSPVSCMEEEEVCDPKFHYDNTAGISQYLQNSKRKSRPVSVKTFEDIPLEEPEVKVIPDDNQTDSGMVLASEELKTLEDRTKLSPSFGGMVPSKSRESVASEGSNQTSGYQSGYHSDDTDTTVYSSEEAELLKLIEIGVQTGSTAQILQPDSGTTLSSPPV
Method Summary: Inhibition of human recombinant VEGFR-2 expressed in Sf21 insect cells incubated for 60 mins by ELISA
Property Name: IC50 (nM)
State just the number; it will be interpreted in nM.

Form: Entry = `COc1cc(/C=C2\CCCn3c2nc2c(cnn2C)c3=O)cc(OC)c1OC` | System = Vascular endothelial growth factor receptor 2 (Homo sapiens, UniProt P35968) | IC50 = ____
13.2

###

Catalogue of molecules with associated pIC50
Measurement Target: Vascular endothelial growth factor receptor 2 (Homo sapiens)
Method Summary: Inhibition of human recombinant VEGFR-2 in the presence of ATP
// pIC50: -log10(molar conc.)

# Entry Smiles, pIC50
data = [
    ("NC(=O)CCn1cc(-c2ccc3ncnc(Nc4cc(O)ccc4F)c3c2)nn1", 7.92),
]

Could you now consider this next molecule?
Using the record for `NC(=O)CCn1cc(-c2ccc3ncnc(Nc4ccc(F)c(O)c4)c3c2)nn1` , report its pIC50.
7.19

###

Measurement Target: Vascular endothelial growth factor receptor 2 (Homo sapiens, UniProt P35968)
Method Summary: Inhibition of human recombinant VEGFR-2 kinase activity using poly(Glu-Tyr) at 4:1 ratio as substrate incubated for 60 mins by ELISA method
Below is a list of entries, each paired with its recorded IC50 value.
Dear colleague, please send the value followed by its unit.

# Compound, IC50
records = [
    ("COc1cc(C2NC(SCC(=O)Nc3ccc(C(C)=O)cc3)=NC(=O)C2C#N)cc(OC)c1OC (configuration not stated)", "199 nM"),
]

With those in mind, consider the next compound.
Item under review: CC(=O)c1ccc(NC(=O)CSC2=NC(=O)C(C#N)C(c3ccccc3)N2)cc1 (configuration not stated) . Reported IC50?
386 nM

###

// reported IC50 for each item listed
Measurement Target: Vascular endothelial growth factor receptor 2 (Homo sapiens)
Method Summary: Inhibition of VEGFR-2 (unknown origin)
Give the value, in units of nM, as a plain number.

# Compound, Measured
records = [
    ("COc1cc2ncnc(Oc3ccc(NC(=O)C4(C(=O)Nc5ccc(F)cc5)CC4)cc3F)c2c2c1OCCO2", 3.5),
]

State its IC50 on Vascular endothelial growth factor receptor 2 (Homo sapiens): COC(C)Oc1cc2ncnc(Oc3ccc(NC(=O)C4(C(=O)Nc5ccc(F)cc5)CC4)cc3)c2c2c1OCCO2 (stereo not drawn)
8.8

Quick one: COC(C)Oc1cc2ncnc(Oc3ccc(NC(=O)C4(C(=O)Nc5ccc(F)cc5)CC4)cc3F)c2c2c1OCCO2 (stereo not drawn)
3.6

###

Measurement Target: Vascular endothelial growth factor receptor 2 (Homo sapiens, UniProt P35968)
Method Summary: Inhibition of VEGFR-2 (unknown origin) incubated for 45 mins by ELISA
Catalogue of compounds with associated IC50

# Entry Smiles, IC50
measured = [
    ("Cc1ccc(C)c(NC(=O)CSc2nc3ccccc3c(=O)n2-c2ccc(S(N)(=O)=O)cc2)c1", "0.48 µM"),
]

Note: attention shifts to another entry.
What does the data say about its IC50? Entry: `COc1cccc(CNC(=O)CSc2nc3ccccc3c(=O)n2-c2ccc(S(N)(=O)=O)cc2)c1OC`
0.24 µM

###

Measurement Target: Vascular endothelial growth factor receptor 2 (Homo sapiens)
Method Summary: Inhibition of VEGFR-2 (unknown origin)
The following compounds are shown together with reported pIC50 values.
Bear in mind: pIC50 is minus log10 of a mol/L concentration; give just that figure.

# Entry Smiles, pIC50
measured = [
    ("C/C(=N\\NC(=O)c1ccc(Nc2ncnc3sc4c(c23)CCCC4)cc1)c1ccccc1", 6.44),
]

Please examine the following record next.
Which pIC50 value is on record for `O=C(N/N=C/c1ccc(Cl)cc1)c1ccc(Nc2ncnc3sc4c(c23)CCCC4)cc1` ?
6.64

###

Measurement Target: UniProtKB P35968
Method Summary: Inhibition of human recombinant VEGFR-2 by ELISA method
Recorded IC50 by entry
The response must be a number in µM with no trailing unit.

# Entry Smiles, Measurement Target, IC50 (µM)
measured = [
    ("O=C(CSc1nnc2c3nncn3c3ccccc3n12)Nc1ccc(C(=O)Nc2cncs2)cc1", "UniProtKB P35968", 3.1),
]

Requested read-out: IC50. Entry: `COc1ccc(NC(=O)c2ccc(NC(=O)CSc3nnc4c5nncn5c5ccccc5n34)cc2)cc1`
3.2

###

Measurement Target: Vascular endothelial growth factor receptor 2 (Homo sapiens, UniProt P35968)
Method Summary: Inhibition of human recombinant VEGFR-2 kinase activity using poly(Glu-Tyr) at 4:1 ratio as substrate incubated for 60 mins by ELISA
# IC50 per record follows
Write the number in nM without appending the unit.

# Entry Smiles, IC50, nM
data = [
    ("Cc1ccc(NC(=O)c2ccc(NC(=O)CN3C(=O)S/C(=C/c4ccccc4)C3=O)cc2)cc1", 250),
]

Sample `O=C(CN1C(=O)S/C(=C/c2ccccc2)C1=O)Nc1ccc(C(=O)NCc2ccccc2)cc1` — what was its IC50?
280

Next entry: `CCc1ccc(NC(=O)c2ccc(NC(=O)CN3C(=O)S/C(=C/c4ccccc4)C3=O)cc2)cc1`
220

###

Attribute: IC50
Measurement Target: Vascular endothelial growth factor receptor 2 (Homo sapiens)
Method Summary: Inhibition of human VEGFR-2
Give the value in nM but do not write nM after it.

# Entry Smiles, Measurement Target, Display Unit, IC50
records = [
    ("Fc1ccc(Nc2nnc3c4c(cccc24)NC(=S)N3Cc2ccccc2)cc1", "Vascular endothelial growth factor receptor 2 (Homo sapiens)", "nM", 210),
]

Suppose we examine the compound `CCOc1ccc(Nc2nnc3c4c(cccc24)NC(=S)N3Cc2ccccc2)cc1` ; what IC50 value has been reported?
30

###

Measurement Target: Vascular endothelial growth factor receptor 2 (Homo sapiens, UniProt P35968)
Method Summary: Inhibition of VEGFR-2 (unknown origin) incubated for […] by ELISA method
Property Name: pIC50
Please express pIC50 as -log10 of the molar concentration.

# Entry Smiles, Measurement Target, Measured
measured = [
    ("CCn1c(SCC(=O)NNC(=O)c2ccccc2)nc2ccc([N+](=O)[O-])cc2c1=O", "Vascular endothelial growth factor receptor 2 (Homo sapiens, UniProt P35968)", 5.34),
]

Let's switch to this compound now.
What does the data say about its pIC50? Entry: `O=C(CSc1nc2ccc([N+](=O)[O-])cc2c(=O)n1-c1ccccc1)NNC(=O)c1ccccc1`
5.32

The reported measurements were obtained from ChEMBL document CHEMBL5376014.
